Test system: THP-1 cells
Lab note: cut-off is 100 nM. Strictly less in GI50 is 1. Exactly 100 nM or more is 0.

* CCn1nc2c(c1C)C(c1ccc(Cl)cc1F)N(c1cc(C)c(=O)n(C)c1)C2=O (stereo not shown) | 0
* CCc1nn(C2CC2)c2c1C(c1ccc(Cl)cc1)N(c1cc(C)c(=O)n(C)c1)C2=O (stereo not shown) | 1
* COc1ccccc1-n1nc(C)c2c1C(=O)N(c1cc(C)c3nnc(C)n3c1)C2c1ccc(F)cc1F (stereo not shown) | 1
* COc1ncc(-n2nc3c(c2C(C)C)C(c2ccc(Cl)cc2)N(c2cc(C)c4onc(C)c4c2)C3=O)c(OC)n1 (stereo not shown) | 0
* Cc1cc(N2C(=O)c3nn(C(=O)N(C)C)c(C)c3C2c2ccc(Cl)cc2)cn(C)c1=O (stereo not shown) | 0
* Cc1nn(C2CN(C)C2)c2c1C(c1ccc(Cl)cc1)N(c1cc(C)c3nnc(C)n3c1)C2=O (stereo not shown) | 0
* CCn1nc2c(c1C)C(c1ccc(F)cc1F)N(c1cc(C)c3nnc(C)n3c1)C2=O (stereo not shown) | 1
* Cc1cc(N2C(=O)c3c(c(C(F)(F)F)nn3C3CC3)C2c2ccc(Cl)cc2)cn(C)c1=O (stereo not shown) | 0
* COc1ncc(-n2nc3c(c2C(C)C)C(c2ccc(Cl)cc2)N(c2ccc4onc(C)c4c2)C3=O)c(OC)n1 (stereo not shown) | 0
* Cc1cc(N2C(=O)c3c(c(C4CC4)nn3C)[C@H]2c2ccc(Cl)cc2)cn2c(C)nnc12 | 1
* Cn1cc(N2C(=O)c3c(cnn3C3CC3)C2c2ccc(Cl)cc2)cc(Cl)c1=O (stereo not shown) | 0
* CCc1nn(C)c2c1C(c1ccc(Cl)cc1)N(c1cc(OC)c3nnc(C)n3c1)C2=O (stereo not shown) | 0
* Cc1nn(C2CN(C)C2)c2c1C(c1ccc(Cl)cc1)N(c1cc(C)c(=O)n(C)c1)C2=O (stereo not shown) | 0
* Cc1nn(C(C)C)c2c1C(c1ccc(F)cc1F)N(c1cc(C)c3nnc(C)n3c1)C2=O (stereo not shown) | 1
* COc1ncccc1-n1nc(C)c2c1C(=O)N(c1cc(C)c3nnc(C)n3c1)C2c1ccc(Cl)cc1 (stereo not shown) | 1
* Cc1nn(C2CNC2)c2c1C(c1ccc(Cl)cc1)N(c1cc(C)c3nnc(C)n3c1)C2=O (stereo not shown) | 0
* COc1ncc(-n2nc(C)c3c2C(=O)N(c2cc(C)c(=O)n(C)c2)[C@H]3c2ccc(Cl)cc2)c(OC)n1 | 0
* Cc1[nH]nc2c1C(c1ccc(Cl)cc1)N(c1cc(C)c(=O)n(C)c1)C2=O (stereo not shown) | 0
* Cc1nn(C2CC2)c2c1C(c1ccc(Cl)cc1)N(c1cn(C)c(=O)c3[nH]ccc13)C2=O (stereo not shown) | 1
* CCc1nn(C(=O)N(C)C)c2c1C(c1ccc(Cl)cc1)N(c1cc(C)c(=O)n(C)c1)C2=O (stereo not shown) | 0
* CCc1nn(CCO)c2c1C(c1ccc(Cl)cc1)N(c1cc(C)c(=O)n(C)c1)C2=O (stereo not shown) | 1
* Cc1cc(N2C(=O)c3nn(C4CN(C)C4)c(C)c3C2c2ccc(Cl)cc2)cn(C)c1=O (stereo not shown) | 0
* Cc1nn(C(=O)N(C)C)c2c1C(c1ccc(Cl)cc1)N(c1cc(C)c(=O)n(C)c1)C2=O (stereo not shown) | 0
* CNc1cc(N2C(=O)c3c(c(C)nn3C3CC3)C2c2ccc(Cl)cc2)nn2c(C)nnc12 (racemic) | 0
* CCOC(=O)N1CC(n2nc(C)c3c2C(=O)N(c2cc(C)c(=O)n(C)c2)C3c2ccc(Cl)cc2)C1 (stereo not shown) | 0
* Cc1nn(C2CC2)c2c1[C@H](c1ccc(Cl)cc1)N(c1cc(C)c3nnc(C)n3n1)C2=O | 0
* CNc1cc(N2C(=O)c3c(c(C)nn3C3CC3)[C@H]2c2ccc(Cl)cc2)nn2c(C)nnc12 | 1
* CCc1nn(C2CC2)c2c1C(c1ccc(Cl)cc1)N(c1cc(C)c3nnc(C)n3c1)C2=O (stereo not shown) | 1
* Cc1cc(N2C(=O)c3nn(C(C)C)c(C)c3C2c2ccc(Cl)cc2F)cn2c(C)nnc12 (stereo not shown) | 1
